The entries below are paired with their reported pIC50.
Biological target: Histone deacetylase 3 (Homo sapiens, UniProt O15379)
Sequence (O15379 whole entry): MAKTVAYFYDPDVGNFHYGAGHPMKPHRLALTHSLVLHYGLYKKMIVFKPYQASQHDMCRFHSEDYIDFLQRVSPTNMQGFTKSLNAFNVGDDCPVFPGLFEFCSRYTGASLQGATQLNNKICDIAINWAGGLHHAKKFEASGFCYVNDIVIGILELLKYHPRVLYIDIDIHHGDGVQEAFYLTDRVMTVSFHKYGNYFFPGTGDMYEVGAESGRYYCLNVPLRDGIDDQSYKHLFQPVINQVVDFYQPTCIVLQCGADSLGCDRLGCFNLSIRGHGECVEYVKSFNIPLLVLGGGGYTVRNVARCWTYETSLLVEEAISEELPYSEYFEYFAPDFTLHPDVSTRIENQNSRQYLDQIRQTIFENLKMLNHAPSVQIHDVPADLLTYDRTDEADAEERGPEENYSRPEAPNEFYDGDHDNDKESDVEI
Experiment: Inhibition of human recombinant HDAC3
Friendly reminder that pIC50 comes from taking -log10 of the concentration in mol/L.

>>> readout_value("CCCC(=O)NO [BUTYRYLHYDROXAMIC ACID]")
5.00
>>> readout_value("CCCC(=O)O [BUTYRIC ACID]")
5.05

Could you now consider this next compound?
Give its pIC50 value. Item: CCCC(CCC)C(=O)NO [VALPROPYLHYDROXAMIC ACID]
3.47

###

The entries below are paired with their reported IC50.
Biological target: Histone deacetylase 2 (Homo sapiens, UniProt Q92769)
Sequence (Q92769 whole entry): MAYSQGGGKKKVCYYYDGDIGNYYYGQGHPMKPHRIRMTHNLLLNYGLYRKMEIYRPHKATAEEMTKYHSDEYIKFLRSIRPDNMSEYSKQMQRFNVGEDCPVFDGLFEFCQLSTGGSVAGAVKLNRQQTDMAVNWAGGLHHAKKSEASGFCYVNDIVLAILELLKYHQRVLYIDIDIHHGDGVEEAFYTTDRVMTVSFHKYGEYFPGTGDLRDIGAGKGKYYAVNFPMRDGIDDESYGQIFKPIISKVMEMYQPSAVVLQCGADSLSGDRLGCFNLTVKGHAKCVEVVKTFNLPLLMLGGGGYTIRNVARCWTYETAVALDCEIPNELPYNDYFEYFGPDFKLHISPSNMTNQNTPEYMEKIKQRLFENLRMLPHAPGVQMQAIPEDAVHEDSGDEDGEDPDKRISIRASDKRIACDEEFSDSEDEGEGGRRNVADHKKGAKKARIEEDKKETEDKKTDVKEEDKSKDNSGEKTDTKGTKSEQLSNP
Experiment: Inhibition of human recombinant HDAC2

Example entries and their recorded answers appear below.
>>> readout_value("CCCC(=O)NO [BUTYRYLHYDROXAMIC ACID]")
"9 µM"
>>> readout_value("CCCC(=O)O")
"12 µM"
>>> readout_value("CCCC(CCC)C(=O)NO [VALPROPYLHYDROXAMIC ACID]")
"680 µM"

Give its IC50 value. Item: O=C(CCCc1ccccc1)NO [PHENYLBUTYRYLHYDROXAMIC ACID]
0.6 µM
